Recorded values, source paper PMC6364417.

# Test system: 501Mel-GP cells (Dabrafenib-resistant)
# test-protocol: Kinase inhibitor library screening, PrestoBlue cell viability, 1 or 10 μM, 72 h
# test-context: 501Mel GP; 10μΜ; 72 h; in %
Note to self: use true only for cell viability, 501Mel GP, 10μΜ readings below 60; a reading exactly at 60 still gets false.

The examples below pair each entry with its known result.
| compound | assigned-class |
| --- | --- |
| C=CC(=O)Nc1cc2c(Nc3ccc(F)c(Cl)c3)ncnc2cc1OCCCN1CCOCC1 | true |
| C=CC(=O)Nc1cccc(Oc2nc(Nc3ccc(N4CCN(C)CC4)cc3)ncc2Cl)c1 | true |
| O=C1NC(=O)C(c2ccccc2[N+](=O)[O-])=C1Nc1ccc(O)c(Cl)c1 | false |
| CCC[C@H](NC(=O)/C(C#N)=C/c1cccc(Br)n1)c1ccccc1 [WP1130, reference compound] | true |
| Nc1cccc(-c2cc3c(Oc4cccc(O)c4)ncnc3[nH]2)c1 | true |
| Cc1cnc(Nc2ccc(OCCN3CCCC3)cc2)nc1Nc1cccc(S(=O)(=O)NC(C)(C)C)c1 [TG101348 (SAR302503)] | true |
| CC(C)(C)c1cc(C=C(C#N)C#N)cc(Br)c1O | false |

Task item: Hello, I'm reviewing records and need to know if cell viability, 501Mel GP, 10μΜ of COc1cc2ncnc(Nc3cccc(Cl)c3)c2cc1OC is below 60. Could you check?
Reply: true
